In this section, each of the molecules is paired with its reported cell viability.
# Test system: ES2
# MEASUREMENT_DESCRIPTION: cell viability relative to DMSO control (MTS) (fraction of DMSO control); higher = more viable cells / less growth inhibition
# MEASUREMENT_SETUP: 10 µM; 48 h
// return a plain number; no unit text

• O=C([O-])c1ccccc1O.[Na+] [Sodium salicylate] = 0.785
• NC(=O)c1cccc2cn(-c3ccc([C@@H]4CCCNC4)cc3)nc12 = 0.61
• O=C(O)c1ccccc1Nc1ccccc1 = 1.02
• CO[C@H]1C[C@@H]2CC[C@@H](C)[C@@](O)(O2)C(=O)C(=O)N2CCCC[C@H]2C(=O)O[C@H]([C@H](C)C[C@@H]2CC[C@@H](OCCO)[C@H](OC)C2)CC(=O)[C@H](C)/C=C(\C)[C@@H](O)[C@@H](OC)C(=O)[C@H](C)C[C@H](C)/C=C/C=C/C=C/1C = 1.02
• CNC(=O)c1ccc(N2C(=S)N(c3ccc(C#N)c(C(F)(F)F)c3)C(=O)C2(C)C)cc1F = 1.14

cell viability lookup needed for `C1=Cc2nc1cc1nc(c(-c3ccccc3)c3ccc(cc4ccc([nH]4)c2-c2ccccc2)[nH]3)C=C1` , thanks.
0.908

cell viability lookup needed for CSc1ccc(/C=C2/C(C)=C(CC(=O)O)c3cc(F)ccc32)cc1 [Sulindac sulfide] , thanks.
1.38

----------
# Test system: ES2
# MEASUREMENT_DESCRIPTION: cell viability relative to DMSO control (MTS) (fraction of DMSO control); higher = more viable cells / less growth inhibition
# MEASUREMENT_SETUP: 10 µM; 48 h
In this section, each of the compounds is paired with its reported cell viability.
// return a plain number; no unit text

Guide cases for cell viability, answers given:
* N#C/C(=C\c1ccc(O)c(O)c1)C(=O)NCc1ccccc1 | 0.891
* NC(=O)c1ccc(I)c([N+](=O)[O-])c1 [BSI-201 (Iniparib)] | 0.778
* COc1cc2/c(=N/c3ccc(Br)cc3F)nc[nH]c2cc1OCC1CCN(C)CC1 [Vandetanib] | 0.577
* CCN(CC)CCNC(=O)c1c(C)[nH]c(/C=C2\C(=O)Nc3ccc(Cl)cc32)c1C | 0.254
* CC(C)C(=O)Nc1ccc([N+](=O)[O-])c(C(F)(F)F)c1 [Flutamide] | 0.917
* Cc1ccc(NC(=O)c2cccc(N(C)C)c2)cc1NC(=O)c1ccc(O)cc1 | 0.951
* Nc1ncn([C@H]2C[C@H](O)[C@@H](CO)O2)c(=O)n1 [Decitabine] | 0.757
* COc1cc(Nc2ncc3c(n2)-c2ccc(Cl)cc2C(c2c(F)cccc2OC)=NC3)ccc1C(=O)O | 0.769

Turning now to a further record.
cell viability lookup needed for CC[n+]1c(/C=C/N(C)c2ccccc2)n(-c2ccccc2)c2ccc(-c3nc4ccccc4s3)cc21 [Akt Inhibitor IV] , thanks.
0.308

----------
# System: ES2
# MEASUREMENT_DESCRIPTION: cell viability relative to DMSO control (MTS) (fraction of DMSO control); higher = more viable cells / less growth inhibition
# MEASUREMENT_SETUP: 10 µM; 48 h
# strict inequality: cell viability < 0.9 yields 1, everything else yields -1

Sample answers from the record:
* C[C@H](NC(=O)/C(C#N)=C/c1cccc(Br)n1)c1ccccc1 | 1
* COCC[n+]1c2c(n(Cc3cnccn3)c1C)C(=O)c1ccccc1C2=O | 1
* CC(C)C(C(=O)O)N1C(=O)C(=Cc2ccc(Br)cc2)SC1=S (stereo not given) | -1

A record lists `Cc1cn(-c2cc(NC(=O)c3ccc(C)c(Nc4nccc(-c5cccnc5)n4)c3)cc(C(F)(F)F)c2)cn1` . Is its cell viability below 0.9?
1
